Entry source: ChEMBL document CHEMBL1149662

# studyTarget: Melanocortin receptor 5 (Homo sapiens, UniProt P33032)
# Sequence (P33032 whole entry): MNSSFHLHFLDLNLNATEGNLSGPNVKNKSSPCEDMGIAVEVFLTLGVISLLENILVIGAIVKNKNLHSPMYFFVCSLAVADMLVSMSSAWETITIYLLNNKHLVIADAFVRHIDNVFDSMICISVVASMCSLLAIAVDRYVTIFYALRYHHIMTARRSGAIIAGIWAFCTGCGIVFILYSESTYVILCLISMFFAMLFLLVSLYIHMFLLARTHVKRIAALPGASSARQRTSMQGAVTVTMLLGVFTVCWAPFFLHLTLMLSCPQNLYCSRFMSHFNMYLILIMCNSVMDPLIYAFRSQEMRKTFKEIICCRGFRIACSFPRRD
# method: Displacement of [125I]NDP-MSH from human recombinant MC5 receptor expressed in Sf9 cells
Please provide measured pKi for the entries that follow.
One number for each entry, as −log10 of the molar value.

>>> observedvalue("NC1CCC(CC2CCC(N(CCc3c(F)cccc3Cl)C(=O)CCCc3c[nH]c4ccccc34)CC2)CC1 (stereo not drawn)")
5.28
>>> observedvalue("NC1CCC(CC2CCC(N(C/C(Cl)=C/c3ccccc3)C(=O)CCCc3c[nH]c4ccccc34)CC2)CC1 (stereo in doubt; form 5)")
5.49
>>> observedvalue("NC1CCC(CC2CCC(N(Cc3c(F)cccc3F)C(=O)CCCc3c[nH]c4ccccc34)CC2)CC1 (stereo not drawn)")
4.08
>>> observedvalue("NCCCN(CCCc1ccccc1)C(=O)Cc1c[nH]c2ccccc12")
4.89
>>> observedvalue("C/C(=C\\c1ccccc1)CN(CCCN)C(=O)CCCc1cccs1")
4.04

Hi there! I need pKi for each item below, if you can.
1. NCCCCCN(Cc1ccccc1)C(=O)[C@H](N)Cc1ccc2ccccc2c1
2. NC1CCC(CC2CCC(N(C/C(Cl)=C/c3ccccc3)C(=O)CCCc3c[nH]c4ccccc34)CC2)CC1 (stereo in doubt; form 4)
3. COc1cc(O)ccc1/C=C/CN(C(=O)CCCc1c[nH]c2ccccc12)C1CCC(CC2CCC(N)CC2)CC1 (stereo in doubt; form 2)

1. 4.62
2. 5.31
3. 4.96
